system: SR leukemia; assay: NCI-60 one-dose screen, 48 h (100 = growth as untreated, 0 = no growth, -100 = all killed); details: 10 µM unless noted
Compounds without any hit were thinned out: in the full panel of roughly 83,000, 20% have a hit. Calls of active or inactive are those of the source. Rule for the calls: active = growth percent below 10; inactive = the rest.
Give growth for every item shown.

COc1cc(OC)c(C(=O)/C=C/c2ccc(C(F)(F)F)cc2)c(OC)c1; 31.6% (inactive)

Provide reported growth for each item, in the same order as listed.
1. O=C1CCCCN1CCCCC#Cc1ccccc1C#Cc1ccccn1
2. COc1ccc(/C=c2\sc3n(c2=O)C2C(NN=3)N(C)C(=O)N2C)cc1 (centres undefined)
3. COc1cc(C(=O)/C=C/c2cc(C(=O)c3cc(OC)c(OC)c(OC)c3)ccc2OC)ccc1N
4. COc1cccc(C2CC(=O)Nc3c2c(C)nn3-c2nc3ccccc3[nH]2)c1OC (centres undefined)

OUT:
["98.6% (inactive)", "-10.6% (active)", "-7.95% (active)", "33.2% (inactive)"]

Provide reported growth for each item, in the same order as listed.
1. Nc1c(C(=O)Nc2ccccc2)sc2nc3c(cc12)CCC3
2. C=C1C(=O)O[C@H]2[C@H]1CC/C(COC(=O)NCCc1ccc(OC)cc1)=C\CC[C@@]1(C)O[C@@H]21
3. O=C1N=C(c2c(-c3[nH]c(=O)c4ccc(Br)cc4c3O)c(O)c3ccccc3c2O)C(=O)c2cc(Br)ccc21
4. Clc1ccc(/C=C/c2nc(N3CCOCC3)c3nc(Cl)c(Cl)cc3n2)cc1

OUT:
1. 39.6% (inactive)
2. -4.05% (active)
3. 20.8% (inactive)
4. 98% (inactive)

----------
Tested on: MALME-3M melanoma
Experiment: NCI-60 one-dose screen, 48 h (100 = growth as untreated, 0 = no growth, -100 = all killed)
Settings: 10 µM unless noted
Protocol: Cells are grown in 96 well plates and exposed to the test compound for 48 hours. Compounds are tested at a single concentration, which is 10^-5 M for most compounds. The reported endpoint is percent growth (GI% or GIPRCNT), where numbers from 0 - 100% represent growth inhibition, and numbers from -100% - 0 represent cell death. For example, a value of 40 represents 60% growth inhibition. A value of 0 means no net growth occurred over the course of the experiment. […]
This is part of a sample that, as a whole, favours compounds with a hit. Of some 83,000 tested, about 20% had one in any assay.
Readout type: growth (%)
Answers are plain numbers, in %.

CCN(CC)CCSc1c2ccc(Cl)cc2nc2ccc(OC)cc12; 101
O=C(O)Cc1ccc2c(c1)Cc1cccnc1O2; 98.5
CN(C)c1ncc(-c2ccc(C(F)(F)F)cc2)c(NC2CCCCCC2)n1; 5.4
Clc1nc(Cl)c2ncn(C/C=C/Cn3cnc4c(Cl)nc(Cl)nc43)c2n1; 111
O=C(Cc1c(F)cccc1Cl)Nc1ccc(S(=O)(=O)Nc2ncccn2)cc1; 124

Provide reported growth for each item, in the same order as listed.
1. NC(C(=O)O)C(O)c1ccc(OCc2ccccc2)c(OCc2ccccc2)c1 (configuration not stated)
2. O=C(OCCCCOC(=O)n1cnc2ccccc21)n1cnc2ccccc21
3. CCN1C(=O)N(CC)C2Nn3c(s/c(=C\c4cccc(F)c4)c3=O)=NC21 (configuration not stated)

OUT:
1: 114; 2: 101; 3: 72.3

Provide reported growth for each item, in the same order as listed.
1. COc1ccc(OC)c(NC(=O)c2cc(S(=O)(=O)N3CCc4ccccc43)ccc2OC)c1
2. COC(=O)CCCCCN=Cc1c(O)c(O)c(C(C)C)c2cc(C)c(-c3c(C)cc4c(C(C)C)c(O)c(O)c(C=NCCCCCC(=O)OC)c4c3O)c(O)c12
3. Cc1nc2scc(-c3ccccc3)n2c(=O)c1CCO
4. O=S(=O)(NCCCNc1nccc(-c2c(-c3ccccc3)nc3sccn23)n1)c1ccc(F)cc1
5. CC(=O)c1cc(C(=O)c2ccc3c(c2)Sc2ccccc2N3)c2cc(C)ccn12
6. O=S(=O)(c1ccccc1)n1ccc(-c2ccc3c(c2)CCO3)n1
7. CC(C)(C)c1cc(-c2nc3ccc(N4CCN(CCO)CC4)cc3[nH]2)cc(C(C)(C)C)c1O

OUT:
1: 111; 2: 44.4; 3: 102; 4: 67.9; 5: 68.2; 6: 94; 7: -26.4

Data origin, for the record: PubChem BioAssay (NCI)
